Entries and their MIC
tested on: N. gonorrhoeae WHO K; test: Liquid broth MIC in Fastidious broth; conditions: Neisseria gonorrhoeae, read-out: Minimum Inhibitory Concentration (MIC), N. gonorrhoeae WHO K

COMPOUND | VALUE OBSERVED
O=C(O)c1cccc2c1OB(O)[C@@H](NC(=O)[C@H](NC(=O)N1CCNC1=O)c1ccc(P(=O)(O)O)cc1)C2 [Example 40] | 1 to 2 µg/mL
CS(=O)(=O)N1CCN(C(=O)N[C@@H](C(=O)N[C@H]2Cc3cccc(C(=O)O)c3OB2O)c2ccc(P(=O)(O)O)c(F)c2F)C1=O (single isomer, unassigned) [Example 13] | < 1 µg/mL
O=C(NC(C(=O)N[C@H]1Cc2cccc(C(=O)O)c2OB1O)c1ccc(P(=O)(O)O)cc1)c1ccccn1 (some centres unmarked) [Example 32] | 4 to 8 µg/mL
NC(C(=O)N[C@H]1Cc2ccc(F)c(C(=O)O)c2OB1O)c1ccc(P(=O)(O)O)cc1 (some centres unmarked) [Example 14] | > 64 µg/mL

Next up:
Q) Give its MIC value. Item: O=C(O)c1cccc2c1OB(O)[C@@H](NC(=O)[C@@H](NC(=O)N1CCNC1=O)c1ccc(P(=O)(O)O)cc1)C2 [Example 39]
A) 16 to 32 µg/mL

---

target: A. baumannii PBP2 (Acinetobacter baumannii); assay: Bocillin-FL competition binding via gel filtration, A. baumannii PBP2
Sequence (D0C8Z9 whole entry): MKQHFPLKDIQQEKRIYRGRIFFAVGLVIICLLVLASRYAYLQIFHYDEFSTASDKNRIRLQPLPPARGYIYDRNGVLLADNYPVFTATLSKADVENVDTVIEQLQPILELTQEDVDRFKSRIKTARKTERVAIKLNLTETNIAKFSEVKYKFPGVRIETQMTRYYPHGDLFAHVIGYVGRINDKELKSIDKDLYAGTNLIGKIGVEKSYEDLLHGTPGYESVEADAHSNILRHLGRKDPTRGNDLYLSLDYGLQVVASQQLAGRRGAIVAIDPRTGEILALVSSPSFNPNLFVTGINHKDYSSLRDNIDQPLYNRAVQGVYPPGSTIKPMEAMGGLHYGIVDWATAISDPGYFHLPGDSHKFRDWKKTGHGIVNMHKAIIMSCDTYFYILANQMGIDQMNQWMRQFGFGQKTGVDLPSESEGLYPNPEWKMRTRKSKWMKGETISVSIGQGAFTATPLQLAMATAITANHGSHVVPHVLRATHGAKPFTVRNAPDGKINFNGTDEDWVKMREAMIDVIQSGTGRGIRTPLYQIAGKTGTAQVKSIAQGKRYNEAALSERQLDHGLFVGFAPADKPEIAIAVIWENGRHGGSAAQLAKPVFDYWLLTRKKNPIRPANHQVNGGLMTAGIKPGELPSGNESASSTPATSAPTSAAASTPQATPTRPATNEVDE
pEC50: −log10 of the molar value.
QUANTITY KIND: pEC50

COMPOUND | pEC50
O=C(O)c1c(F)ccc2c1OB(O)[C@@H](NC(=O)[C@H](NC(=O)N1CCN(C3CCN(C(=O)Nc4c(F)ccc(O)c4Cl)CC3)C1=O)c1cc(F)c(O)c(O)c1Cl)C2 (single isomer, unassigned) | > 5.00
O=C(NCCCN1CCN(C(=O)NC(C(=O)N[C@H]2Cc3ccc(F)c(C(=O)O)c3OB2O)c2cc(F)c(O)c(O)c2Cl)C(=O)C1=O)c1ccc(O)cc1 (stereo partly drawn) | 4.30 to 5.00
O=C(O)c1c(F)ccc2c1OB(O)[C@@H](NC(=O)[C@H](NC(=O)N1CCN(C3CCN(C(=O)c4c(F)ccc(O)c4F)CC3)C1=O)c1cc(F)c(O)c(O)c1Cl)C2 (single isomer, unassigned) | > 5.00

Q) What does the data say about its pEC50? Entry: O=C(O)c1c(F)ccc2c1OB(O)[C@@H](NC(=O)C(NC(=O)N1CCN(C3CCN(C(=O)Nc4cc(O)cc(Cl)c4)CC3)C(=O)C1=O)c1cc(F)c(O)c(O)c1Cl)C2 (stereo partly drawn)
A) > 5.00

Q) Need pEC50 of O=C(NCCCN1CCN(C(=O)NC(C(=O)N[C@H]2Cc3ccc(F)c(C(=O)O)c3OB2O)c2cc(F)c(O)c(O)c2Cl)C(=O)C1=O)c1c(F)cncc1F (stereo partly drawn) , thanks.
A) 4.30 to 5.00

Q) Fill in the blank: the reported pEC50 of O=C(NCCCN1CCN(C(=O)N[C@@H](C(=O)N[C@H]2Cc3ccc(F)c(C(=O)O)c3OB2O)c2cc(F)c(O)c(O)c2Cl)C(=O)C1=O)c1cc(F)c(O)cc1F (single isomer, unassigned) is ____.
A) > 5.00

Q) What pEC50 value was documented for this compound, O=C(NCCCN1CCN(C(=O)N[C@@H](C(=O)N[C@H]2Cc3ccc(F)c(C(=O)O)c3OB2O)c2cc(F)c(O)c(O)c2Cl)C(=O)C1=O)c1ccc(O)cc1Cl (single isomer, unassigned) ?
A) > 5.00

Q) Can you look up the measured pEC50 of O=C(O)c1c(F)ccc2c1OB(O)[C@@H](NC(=O)[C@H](NC(=O)N1CCN(C3CCN(C(=O)Nc4cc(F)c(O)c(O)c4Cl)CC3)C1=O)c1ccc(P(=O)(O)O)cc1)C2 (single isomer, unassigned) for me?
A) > 5.00

Q) What value of pEC50 has been recorded for this entry: O=C(NCCCN1CCN(C(=O)NC(C(=O)N[C@H]2Cc3ccc(F)c(C(=O)O)c3OB2O)c2cc(F)c(O)c(O)c2Cl)C(=O)C1=O)c1ccncc1Cl (stereo partly drawn)
A) 4.30 to 5.00
